# GI50 per record follows
Test system: SK-OV-3
experimentalDetails: NCI tumour cell line growth inhibition, 48 h
Activity calls are given as the source filed them. Rule as the data show it: active = GI50 up to about 1.1 µM and inactive = higher.

{"columns": ["molecule", "GI50"],
 "data": [
  ["O=C1C(O)=C(CCCCCCCCC2CCCCC2)C(=O)c2ccccc21", "16.1 µM (inactive)"],
  ["CCCCCCCCCCCC(=O)C1=C(O)CC(O)CC1=O (stereo unspecified)", "> 100 µM (inactive)"],
  ["N=C(N)NCCCC(NC(=O)OCCCCCCn1ccc(N)nc1=O)C(=O)O (stereo unspecified)", "> 100 µM (inactive)"],
  ["O=C(O)c1ccc2c(c1C(=O)O)C(=O)OC2(c1ccc(O)cc1)c1ccc(O)cc1", "> 100 µM (inactive)"],
  ["COc1cc(/C=C2\\N=C(c3ccccc3)N(c3nc4cc(C)c(C)cc4s3)C2=O)cc(OC)c1OC", "27.7 µM (inactive)"],
  ["O=c1[nH][nH]c(=O)n1/N=C/c1ccccc1", "> 100 µM (inactive)"],
  ["COc1ccc(N2CCOCC2)cc1", "> 100 µM (inactive)"],
  ["COc1cc(C(SCc2ccccc2)SCc2ccccc2)ccc1O", "4.22 µM (inactive)"],
  ["CCN(CC)C(=C(C(Cl)=C(Cl)Cl)[N+](=O)[O-])N(CC)CC", "> 100 µM (inactive)"],
  ["CN(C)c1ccc(/C=N/NC(=S)Nc2ccccc2)cc1", "> 100 µM (inactive)"],
  ["CC1=CC(C2/C(=N/O)C=C(C)CC2(C)C)C(O)C(C)(C)C1 (stereo unspecified)", "17.9 µM (inactive)"]
]}

----------
Each entry below lists one item and its recorded GI50 value.
Test system: UACC-62
experimentalDetails: NCI tumour cell line growth inhibition, 48 h
The source made the active and inactive calls. No stated cut-off is given here; in the data, active = GI50 up to about 1.1 µM and inactive = higher.

{"columns": ["compound", "targetEntity", "GI50"],
 "data": [
  ["CC[C@@]1(C[C@H]2C[C@@]3(C(=O)OC)c4[nH]c5ccccc5c4CCN3C2=S)COC2(CCCCC2)O1", "UACC-62", "11.3 µM (inactive)"],
  ["O=c1[nH][nH]c(=O)c2c1ccc1oc3ccccc3c12", "UACC-62", "> 100 µM (inactive)"],
  ["CC1(C)[C@@H]2CC[C@@]1(C)C1(S[S+]1[O-])C21Cc2ccccc2C1 (stereo not given in full)", "UACC-62", "22.2 µM (inactive)"],
  ["CC1(C)N/C(=C\\C=O)C(C)(C)N1O", "UACC-62", "> 100 µM (inactive)"],
  ["CN(C)c1ccc(/C=c2/sc3nc(=O)c(-c4ccccc4NC(=O)C(F)(F)F)nn3c2=O)cc1", "UACC-62", "> 100 µM (inactive)"]
]}

----------
Test system: LOX IMVI
experimentalDetails: NCI tumour cell line growth inhibition, 48 h
Active and inactive are the calls of the source. Cut-off read from the data, not from the text of the source: active = GI50 up to about 1.1 µM and inactive = higher.
Collected GI50 values appear next to each entry.

{"columns": ["compound", "GI50"],
 "data": [
  ["COC(=O)C1C(=O)C=CN([C@H](C)c2ccccc2)[C@@H]1Cc1ccc(OC)c(OCc2ccccc2)c1I (stereo not given in full)", "14.5 µM (inactive)"],
  ["NCC(O)CNCC/C=C\\C/C=C\\C/C=C\\C/C=C\\C/C=C\\C/C=C\\CCCCC/C=C\\CCNCC(O)CN (stereo not given)", "1.79 µM (inactive)"],
  ["COC(=O)CN1CCN(c2cccc3c2CCCC3)CC1", "43.5 µM (inactive)"],
  ["N#CI1OC(=O)c2ccccc21", "> 100 µM (inactive)"],
  ["CCCCCCC(C)c1ccc2c(c1)C(=O)c1nc3ccncc3c(=O)n1-2 (stereo not given)", "1.06 µM (active)"],
  ["Cc1csc2nc(-c3ccc(Cl)c([N+](=O)[O-])c3)c(/C=N/NC(=N)N)n12", "1.51 µM (inactive)"],
  ["CCOC(=O)NC(=O)c1cn(-c2ccc(CCOC(=O)CCCCCCCCC(=O)OCCc3ccc(-n4cc(C(=O)NC(=O)OCC)c(=O)[nH]c4=O)cc3)cc2)c(=O)[nH]c1=O", "> 100 µM (inactive)"],
  ["CN(C)Cc1cc(O)c(O)c(CN(C)C)c1", "36 µM (inactive)"],
  ["NC(=O)N/N=C1/CCCC/C1=C\\c1ccccc1", "> 100 µM (inactive)"],
  ["O=c1cc2ccccc2nn1Cc1cccc(Cl)c1", "> 100 µM (inactive)"]
]}
